meta.source: patent US20250346644A1

molecular target: T1, hIL2-DM-his (human, UniProt P60568 21-153); experiment: BLI ForteBio, Ab on Protein A sensor
T1 construct: expressed in ExpiCHO-S cells, nickel-column purified; also called hIL-2 mutein containing two point mutations K64G and N90R (with a his-tag); not shown: his-tag
T1 sequence (P60568 21-153 K84G/N110R): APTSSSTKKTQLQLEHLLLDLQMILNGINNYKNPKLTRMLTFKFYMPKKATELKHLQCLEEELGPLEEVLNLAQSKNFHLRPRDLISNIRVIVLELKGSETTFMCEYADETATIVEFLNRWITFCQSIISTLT
READOUT_KIND: koff (s⁻¹)
Output spec: scalar in s⁻¹, unitless text.

Challenge: Fill in: koff of K3G4 (antibody, V domains shown) VH: QVQLVQSGAEVKKPGATVKISCKVSGDTITAYYMHWVRQAPGQGLEWIGRIDPEDDSTKYAENFKGRVTITADTSTDTAYMELSSLRSEDTAVYYCTTVTFLYSRELRWFAYWGQGTLVTVSS VL: DIVLTQSPATLSLSPGERATLSCQASQYIGNYLSWYQQKPGQAPRLLIYQATSLASGIPARFSGSRSGTDFTLTISSLEPEDFAVYYCLQHYSTPYTFGQGTKLEIK is ___
Response given: 0.00122

Challenge: Queued: K4G1 (antibody, V domains shown) VH: QVQLVQSGAEVKKPGATVKISCKVSGDTITAYYMHWVRQAPGQGLEWIGRIDPEDDSTKYAENFKGRVTITADTSTDTAYMELSSLRSEDTAVYYCTTVTFYYSRELRWFAYWGQGTLVTVSS VL: DIVLTQSPATLSLSPGERATLSCQASQYIGNYLSWYQQKPGQAPRLLIYSATSLASGIPARFSGSRSGTDFTLTISSLEPEDFAVYYCLQHYSTPYTFGQGTKLEIK
Response given: 0.00151

Challenge: Proceed to K4G3 (antibody, V domains shown) VH: QVQLVQSGAEVKKPGATVKISCKVSGDTITAYYMHWVRQAPGQGLEWIGRIDPDDDSTKYAENFKGRVTITADTSTDTAYMELSSLRSEDTAVYYCTTVTFYYSRELRWFAYWGQGTLVTVSS VL: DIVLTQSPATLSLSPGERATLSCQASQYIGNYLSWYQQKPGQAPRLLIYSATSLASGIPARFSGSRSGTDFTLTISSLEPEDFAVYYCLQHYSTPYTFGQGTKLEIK
Response given: 0.00108

Challenge: # repeat for K4G6 (antibody, V domains shown) VH: QVQLVQSGAEVKKPGATVKISCKVSGDTITAYYMHWVRQAPGQGLEWIGRIDPDDDSTKYAENFKGRVTITADTSTDTAYMELSSLRSEDTAVYYCTTITFYYSRELRWFAYWGQGTLVTVSS VL: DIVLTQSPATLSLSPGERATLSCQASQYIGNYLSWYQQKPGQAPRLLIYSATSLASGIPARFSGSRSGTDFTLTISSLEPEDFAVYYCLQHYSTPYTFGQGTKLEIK
Response given: 0.000994

Challenge: Lookup K1G8 (antibody, V domains shown) VH: QVQLVQSGAEVKKPGATVKISCKVSGDTITAYYMHWVRQAPGQGLEWIGRIDPEDDSTKYAENFKGRVTITADTSTDTAYMELSSLRSEDTAVYYCTTITFLYSRELRWFAYWGQGTLVTVSS VL: DIVLTQSPATLSLSPGERATLSCQASQYISNYLSWYQQKPGQAPRLLIYQATSLASGIPARFSGSRSGTDFTLTISSLEPEDFAVYYCLQHYSTPYTFGQGTKLEIK
Response given: 0.000291

Challenge: Please do the same for K2G4 (antibody, V domains shown) VH: QVQLVQSGAEVKKPGATVKISCKVSGDTITAYYMHWVRQAPGQGLEWIGRIDPEDDSTKYAENFKGRVTITADTSTDTAYMELSSLRSEDTAVYYCTTVTFLYSRELRWFAYWGQGTLVTVSS VL: DIVLTQSPATLSLSPGERATLSCQASQYISNYLSWYQQKPGQAPRLLIYSATSLASGIPARFSGSRSGTDFTLTISSLEPEDFAVYYCLQHYSTPYTFGQGTKLEIK as well.
Response given: 0.000455

Challenge: Can you check K3G10 (antibody, V domains shown) VH: QVQLVQSGAEVKKPGATVKISCKVSGDTITAYYMHWVRQAPGQGLEWIGRIDPDDDSTKYAENFKGRVTITADTSTDTAYMELSSLRSEDTAVYYCTTITFYYTRELRWFAYWGQGTLVTVSS VL: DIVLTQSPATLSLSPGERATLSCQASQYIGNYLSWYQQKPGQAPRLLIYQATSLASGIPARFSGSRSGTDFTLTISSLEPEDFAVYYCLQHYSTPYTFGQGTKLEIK next?
Response given: 0.000585
